- Test system: EKVX NSCLC
- assay details: NCI-60 one-dose screen, 48 h
- condition: 10 µM unless noted
The panel holds about 83,000 compounds, 20% with a hit somewhere; the sample as a whole holds those more often. The source made the active and inactive calls. The calls were made as follows: active = growth percent below 10; inactive = the rest.
// one of active, inactive, no free text

Incoming: What was the test verdict on CCN(C(=O)N1CCN(c2cc3c(cc2F)c(=O)c(C(=O)O)cn3C2CC2)CC1)c1nc(-c2ccccc2)cs1 ?
Outgoing: inactive

Incoming: Also, Nc1ncc(-c2ccc3ncnc(N4CCc5ccc(Cl)cc54)c3c2)cc1C(F)(F)F please.
Outgoing: active

Incoming: Also, CCCN1C(=O)/C(=c2\sc3n(c2=O)C2C(NN=3)N(CC)C(=O)N2CC)c2ccccc21 (configuration not stated) please.
Outgoing: inactive

Incoming: Also, O=C1C(Nc2ccc(Cl)cc2)=C(I)C(=O)c2ncccc21 please.
Outgoing: inactive

Incoming: Also, Cc1ccc(C(=O)N(CCCN)[C@@H](c2nc3cc(Cl)ccc3c(=O)n2Cc2ccccc2)C(C)C)cc1 please.
Outgoing: active

Incoming: Also, O=C1C(N2CCOCC2)=C(I)C(=O)c2ncccc21 please.
Outgoing: inactive

Incoming: Also, O=[N+]([O-])c1ccc2[nH]c3nccc(NCc4cccc(Cl)c4)c3c2c1 please.
Outgoing: inactive

====

- Test system: ACHN renal
- assay details: NCI-60 one-dose screen, 48 h (100 = growth as untreated, 0 = no growth, -100 = all killed)
- condition: 10 µM unless noted
- Description: Growth inhibition of the ACHN human tumor cell line is measured as a screen for anti-cancer activity. Cells are grown in 96 well plates and exposed to the test compound for 48 hours. Compounds are tested at a single concentration, which is 10^-5 M for most compounds. The reported endpoint is percent growth (GI% or GIPRCNT), where numbers from 0 - 100% represent growth inhibition, and numbers from -100% - 0 represent cell death. For example, a value of 40 represents 60% growth inhibition. […]
This is part of a sample that, as a whole, favours compounds with a hit. Of some 83,000 tested, about 20% had one in any assay.
Can you tell me growth for the items I'm about to list?
Please give a number only; it is taken to be in %.

Incoming: Recall the recorded growth for Nc1nc2ccccc2c2c(=O)c3ccc(Cl)cc3sc12 with ACHN renal and state it.
Outgoing: 83.6

Incoming: Also, CCCN1C(=O)/C(=c2\sc3n(c2=O)NC2C(N=3)N(CC)C(=O)N2CC)c2ccccc21 (stereo not drawn) please.
Outgoing: 47.5

Incoming: Also, COc1cccc(C2C(C#N)=C(N)Oc3cc(OCCCCCC[P+](c4ccccc4)(c4ccccc4)c4ccccc4)ccc32)c1 (stereo not drawn) please.
Outgoing: 18

Incoming: Also, COc1cc(/C=C/C(=O)c2ccc(NC(=O)CSc3nnc(-c4cc(-c5ccccc5)nc5ccccc45)n3-c3ccccc3)cc2)cc(OC)c1OC please.
Outgoing: 78.6

Incoming: Also, CCN(CC)CCCN1C(=O)c2c(c(C)c3c(oc4cc(OC)ccc43)c2C)C1=O please.
Outgoing: 63.1

Incoming: Also, Brc1ccc(/C=C(/C2=NCCN2)n2ccc3ccccc32)cc1 please.
Outgoing: 68.7

Incoming: Also, O=C(NCc1ccc(Cn2c(=O)sn(-c3ccc(Cl)cc3)c2=O)cc1)OCc1ccc2c(Cl)cc(Cl)c(O)c2n1 please.
Outgoing: 26

Incoming: Also, CCC(=O)Oc1cc(Cl)c(Cl)cc1Cl please.
Outgoing: 101

Incoming: Also, Cc1c(C(C)(C)O)cn2ncnc(Oc3ccc(NC(=O)Nc4ccc(Cl)c(C(F)(F)F)c4)cc3)c12 please.
Outgoing: 21

Incoming: Also, COc1nc2ccc(C)cc2cc1/C=[N+](\[O-])c1ccccc1 please.
Outgoing: 83.5

Incoming: Also, CCCCC1COc2cccc3c2N1C=C/C3=C\C(=O)N(C)c1cccc(Cl)c1 (stereo not drawn) please.
Outgoing: 98.5

Incoming: Also, CCCCSc1ccc2nc(-c3ccc(OCCCN=C(N)N)cc3)cn2c1 please.
Outgoing: 89.2

Incoming: Also, CC[C@]12CN3CCc4c([nH]c5ccccc45)[C@@](C(=O)OC)(c4cc5c(cc4OC)N(C)[C@H]4[C@@](O)(C(=O)OC)[C@H](OC(C)=O)[C@]6(CC)C=CCN7CC[C@]54[C@@H]76)CC(C3)[C@H]1O2 (stereo partly drawn) please.
Outgoing: 40.5

Incoming: Also, COc1cc(CNC(=O)CCCC/C=C/C(C)C)ccc1OCc1cn(-c2ccc([N+](=O)[O-])cc2)nn1 please.
Outgoing: 90.7

Incoming: Also, CC/C(=C(/c1ccc(O)cc1)c1ccc(OCCN2CCCCCC2)cc1)c1ccc(Cl)cc1 please.
Outgoing: 99.9

Incoming: Also, CON1CCC[C@]2(C)[C@H]3CC[C@@H]4[C@H]5[C@@H](O)C(C)(C)CC[C@]5(CO)CC[C@@]4(C)[C@]3(C)CC[C@H]2C1(C)C please.
Outgoing: 107

Incoming: Also, CCOC(=O)n1cc(-c2nonc2-c2cn(C)c3ccc(OC)cc23)c2cc(F)ccc21 please.
Outgoing: 60.2

Incoming: Also, CCn1cc(C(=O)NN=C2CCCC2)c(=O)c2ccc(C)nc21 please.
Outgoing: 86.6
